These measurements were taken from paper PMC6219668.

System: panel of nearly 500 cancer cell lines
Test: Cancer Cell Line Encyclopedia profiling, 3-day CellTiter-Glo
Format: cell-based
Details: Homo sapiens, OE33
Measure: IC50

{"Given Smiles": "CN(C)C(=O)c1cc2cnc(Nc3ccc(N4CCNCC4)cn3)nc2n1C1CCCC1", "Result": "> 8 µM"}

---

System: panel of nearly 500 cancer cell lines
Test: Cancer Cell Line Encyclopedia profiling, 3-day CellTiter-Glo
Format: cell-based
Conditions: Homo sapiens, PC-14

{"Compound": "CN(C)C(=O)c1cc2cnc(Nc3ccc(N4CCNCC4)cn3)nc2n1C1CCCC1 [Ribociclib]", "Value Unit": "µM", "EC50": 4.03}
